PROTOCOL: Cytotoxicity against human HeLa cells assessed as reduction in cell viability incubated for 24 hrs by CellTiter-Blue assay
Assay type: cell-based

{"MOLECULE": "CCCCCC(=O)N[C@H](C(=O)NCc1ccc(C(N)=O)cc1)c1ccc(OCc2cccc(OC)c2)cc1", "CC50 at 24 h": "> 100 µM"}
{"MOLECULE": "CCCCCC(=O)N[C@H](C(=O)NCc1ccc(C(N)=O)cc1)c1ccc(OCc2ccc(C(C)(C)C)cc2)cc1", "CC50 at 24 h": "> 12.5 µM"}
{"MOLECULE": "CCCCCC(=O)N[C@H](C(=O)NCc1ccc(C(N)=O)cc1)c1ccc(C(F)(F)F)cc1", "CC50 at 24 h": "> 50 µM"}
{"MOLECULE": "CCCCCC(=O)N[C@H](C(=O)N1CCCCC1)c1ccc(OCc2ccccc2)cc1", "CC50 at 24 h": "29 µM"}
{"MOLECULE": "CCCC[C@H](NC(C)=O)C(=O)N[C@H](C(=O)NCc1ccc(C(N)=O)cc1)c1ccc(OCc2ccccc2)cc1", "CC50 at 24 h": "> 50 µM"}
{"MOLECULE": "NCCCCCC(=O)N[C@H](C(=O)NCc1ccc(C(N)=O)cc1)c1ccc(OCc2ccccc2)cc1", "CC50 at 24 h": "> 50 µM"}
{"MOLECULE": "CCCCCC(=O)N[C@@H](Cc1ccccc1)C(=O)NCc1ccc(C(N)=O)cc1", "CC50 at 24 h": "> 50 µM"}
{"MOLECULE": "CCCCCC(=O)N[C@H](C(=O)NCc1ccc(C(N)=O)cc1)c1ccc(OCc2ccc(C(F)(F)F)cc2)cc1", "CC50 at 24 h": "> 100 µM"}
{"MOLECULE": "NC(=O)c1ccc(CNC(=O)[C@@H](NC(=O)c2ccc(-c3cccs3)s2)c2ccc(OCc3ccccc3)cc2)cc1", "CC50 at 24 h": "> 100 µM"}
{"MOLECULE": "NC(=O)c1cccc(NC(=O)[C@@H](NC(=O)c2ccc(Oc3cccc4c3C(=O)CC4)cc2)c2ccc(OCc3ccccc3)cc2)c1", "CC50 at 24 h": "> 100 µM"}
{"MOLECULE": "CCCC(O)C(=O)N[C@H](C(=O)NCc1ccc(C(N)=O)cc1)c1ccc(OCc2ccccc2)cc1 (some centres not stated)", "CC50 at 24 h": "> 50 µM"}
{"MOLECULE": "CCCCCC(=O)N[C@H](C(=O)NCc1ccc(C(N)=O)cc1)c1ccc(OCc2ccccc2)cc1", "CC50 at 24 h": "> 100 µM"}
{"MOLECULE": "NC(=O)c1ccc(CNC(=O)[C@@H](NC(=O)c2cc3ccccc3s2)c2ccc(OCc3ccccc3)cc2)cc1", "CC50 at 24 h": "> 50 µM"}
{"MOLECULE": "CCCCCC(=O)N[C@H](C(=O)NCC1CCC(C(N)=O)CC1)c1ccc(OCc2ccccc2)cc1 (some centres not stated)", "CC50 at 24 h": "> 50 µM"}
{"MOLECULE": "CCCCCCCC(=O)N[C@H](C(=O)NCc1ccc(C(N)=O)cc1)c1ccc(OCc2ccccc2)cc1", "CC50 at 24 h": "> 50 µM"}
{"MOLECULE": "CCCCCC(=O)N[C@H](C(=O)Nc1ccccc1C(N)=O)c1ccc(OCc2ccccc2)cc1", "CC50 at 24 h": "> 50 µM"}
{"MOLECULE": "CCCCCC(=O)N[C@H](C(=O)NCCc1ccccc1)c1ccc(OCc2ccccc2)cc1", "CC50 at 24 h": "< 12.5 µM"}
{"MOLECULE": "Cc1ccc(C(=O)c2cc(O)c(O)c([N+](=O)[O-])c2)cc1", "CC50 at 24 h": "> 25 µM"}
{"MOLECULE": "NC(=O)c1cccc(NC(=O)[C@@H](NC(=O)c2ccc(-c3ccc(Cl)cc3)cc2)c2ccc(OCc3ccccc3)cc2)c1", "CC50 at 24 h": "> 25 µM"}
{"MOLECULE": "CCCCC(=O)N[C@H](C(=O)NCc1ccc(C(N)=O)cc1)c1ccc(OCc2ccccc2)cc1", "CC50 at 24 h": "> 100 µM"}
{"MOLECULE": "CCCCCC(=O)N[C@H](C(=O)NCc1cccc(OC)c1)c1ccc(OCc2ccccc2)cc1", "CC50 at 24 h": "> 50 µM"}
{"MOLECULE": "CCCCCC(=O)N[C@H](C(=O)Nc1ccc(OC)cc1)c1ccc(OCc2ccccc2)cc1", "CC50 at 24 h": "> 25 µM"}
{"MOLECULE": "NC(=O)c1cccc(NC(=O)[C@@H](NC(=O)c2ccc(Oc3ccc(Cl)cc3)cc2)c2ccc(OCc3ccccc3)cc2)c1", "CC50 at 24 h": "96 µM"}
{"MOLECULE": "CCCCCC(=O)N[C@H](C(=O)NCc1ccc(C(N)=O)cc1)c1ccc(OCc2ccc(O)cc2)cc1", "CC50 at 24 h": "> 50 µM"}
{"MOLECULE": "COc1ccccc1Oc1ccc(C(=O)N[C@H](C(=O)Nc2cccc(C(N)=O)c2)c2ccc(OCc3ccccc3)cc2)cc1", "CC50 at 24 h": "> 100 µM"}
{"MOLECULE": "CCCCCC(=O)N[C@@H](C(=O)NCc1ccc(C(N)=O)cc1)c1ccc(OCc2ccc(Cl)c(Cl)c2)cc1", "CC50 at 24 h": "> 50 µM"}
{"MOLECULE": "NC(=O)c1cccc(NC(=O)[C@@H](NC(=O)c2ccc(C(=O)N3CCOCC3)cc2)c2ccc(OCc3ccccc3)cc2)c1", "CC50 at 24 h": "> 100 µM"}

Every entry's value here was drawn from ChEMBL document CHEMBL4811254.
